# RUN DESCRIPTION: AUC (0 to t) in Beagle dog at 2 mg/kg, po
# Assay type: ADME, organism-based, Canis lupus familiaris
# Design: dose 2 mg/kg
# APPLIED CONDITIONS: in vivo
PROPERTY: AUC(0-t) (ng·h/mL)
Supply the numeric figure in ng·h/mL, leaving out any unit text.

For Cc1cnc(Nc2ccnn2C)nc1-c1cc2n(c1)C(=O)N([C@H](CO)c1cccc(Cl)c1)C2 , write its AUC(0-t).
3270

###

# RUN DESCRIPTION: Cmax in plasma of BALB/c mouse xenografted with human COLO 205 cells at 50 mg/kg, po for 14 days
# Format: ADME, organism-based
# Parameters: route oral, dose 50 mg/kg, time 14 day
PROPERTY: Cmax (ng/mL)
Your answer should be a plain number; it is taken to be in ng/mL.

Please supply the value of reported Cmax for the item CC(C)Nc1cc(-c2c[nH]c(C(=O)N[C@H](CO)c3cccc(Cl)c3)c2)c(Cl)cn1
32300

###

# RUN DESCRIPTION: AUC in tumor of BALB/c mouse xenografted with human COLO 205 cells at 50 mg/kg, po for 14 days
# Format: ADME, organism-based, Neoplasm
# Parameters: dose 50 mg/kg, time 14 day
PROPERTY: AUC at 336 h (ng·h/mL)
Just the number in ng·h/mL, nothing appended.

Determine from records and report AUC at 336 h for CC(C)Nc1cc(-c2c[nH]c(C(=O)N[C@H](CO)c3cccc(Cl)c3)c2)c(Cl)cn1
48800

###

The following compounds are shown together with reported half-life values.
# RUN DESCRIPTION: Half life in Sprague-Dawley rat at 2 mg/kg, po
# APPLIED CONDITIONS: in vivo

Cc1cnc(Nc2ccnn2C)nc1-c1cc2n(c1)C(=O)N([C@H](CO)c1cccc(Cl)c1)CC2 | 1.6 h

// switching to the query compound
Give the reported half-life for this compound. Cc1cnc(Nc2ccnn2C)nc1-c1cc2n(c1)C(=O)N([C@H](CO)c1cccc(Cl)c1)C2
2.1 h

###

# RUN DESCRIPTION: AUC in tumor of BALB/c mouse xenografted with human COLO 205 cells at 25 mg/kg, po for 14 days
# Assay type: ADME, organism-based, Neoplasm
# Design: time 14 day, dose 25 mg/kg
PROPERTY: AUC at 336 h (ng·h/mL)
Give the value in ng·h/mL but do not write ng·h/mL after it.

State its AUC at 336 h for this compound: Cc1cnc(Nc2ccnn2C)nc1-c1cc2n(c1)C(=O)N([C@H](CO)c1cccc(Cl)c1)C2
30300

###

# RUN DESCRIPTION: AUC (0 to t) in Sprague-Dawley rat at 2 mg/kg, po
# Assay type: ADME, organism-based
# Design: dose 2 mg/kg
# APPLIED CONDITIONS: in vivo
PROPERTY: AUC(0-t) (ng·h/mL)
Report only the number, with the unit ng·h/mL understood.

Cc1cnc(Nc2ccnn2C)nc1-c1cc2n(c1)C(=O)N([C@H](CO)c1cccc(Cl)c1)CC2 | 258

As a next step, examine the compound that follows.
Please indicate AUC(0-t) recorded for Cc1cnc(Nc2ccnn2C)nc1-c1cc2n(c1)C(=O)N([C@H](CO)c1cccc(Cl)c1)C2
726

###

# TARGET SYSTEM: Mitogen-activated protein kinase 1 (Homo sapiens)
# RUN DESCRIPTION: Inhibition of ERK2 (unknown origin) measured after 2 hr by ADP-glo assay
PROPERTY: IC50 (nM)
Answer format: numeric, nM implied, no suffix.

Cc1cnc(Nc2ccnn2C)nc1-c1cc2n(c1)C(=O)N([C@H](CO)c1ccc(Cl)c(F)c1)C2 | 4.8
Cc1cnc(Nc2ccnn2C)nc1-c1cc2n(c1)C(=O)N([C@H](CO)c1ccc(F)c(Cl)c1)C2 | 9.5
CC(C)Nc1cc(-c2cc3n(c2)C(=O)N([C@H](CO)c2cccc(Cl)c2)C3)c(Cl)cn1 | 237
O=C1N([C@H](CO)c2cccc(Cl)c2)Cc2cc(-c3nc(NC4CCOCC4)ncc3Cl)cn21 | 5.8
Cc1cnc(Nc2ccnn2C)nc1N1Cc2nn(C(CO)c3cccc(Cl)c3)c(C)c2C1 (racemic) | 99

Supply IC50 value. Item: Cn1nccc1Nc1nccc(N2CCN(C(CO)c3cccc(Cl)c3)C(=O)C2)n1 (racemic)
240

State, in one line, measured IC50 of Cc1cnc(Nc2ccnn2C)nc1-c1cn2c(c1F)CN([C@H](CO)c1cccc(Cl)c1)C2=O
130

###

# RUN DESCRIPTION: Cmax in tumor of BALB/c mouse xenografted with human COLO 205 cells at 25 mg/kg, po for 14 days
# Format: ADME, organism-based, Neoplasm
# Parameters: route oral, dose 25 mg/kg, time 14 day
PROPERTY: Cmax (ng/mL)
Write the number in ng/mL without appending the unit.

Report Cmax, nothing else, for this compound: Cc1cnc(Nc2ccnn2C)nc1-c1cc2n(c1)C(=O)N([C@H](CO)c1cccc(Cl)c1)C2
9460

###

# TARGET SYSTEM: Cytochrome P450 2C9 (Homo sapiens, UniProt P11712)
# Sequence (P11712 whole entry): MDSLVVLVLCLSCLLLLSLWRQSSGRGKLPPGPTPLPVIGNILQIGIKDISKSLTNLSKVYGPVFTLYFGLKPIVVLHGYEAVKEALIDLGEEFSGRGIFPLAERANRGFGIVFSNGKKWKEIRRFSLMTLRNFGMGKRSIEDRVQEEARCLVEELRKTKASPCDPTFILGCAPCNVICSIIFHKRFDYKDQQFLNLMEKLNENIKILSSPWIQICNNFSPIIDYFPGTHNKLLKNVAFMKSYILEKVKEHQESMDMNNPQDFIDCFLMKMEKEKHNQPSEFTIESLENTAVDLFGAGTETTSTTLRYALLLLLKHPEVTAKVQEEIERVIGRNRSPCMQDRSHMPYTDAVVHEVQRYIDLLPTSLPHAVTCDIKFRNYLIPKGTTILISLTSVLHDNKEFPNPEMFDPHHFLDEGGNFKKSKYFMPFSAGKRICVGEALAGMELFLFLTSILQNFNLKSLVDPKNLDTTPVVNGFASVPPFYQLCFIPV
PROPERTY: IC50

Fill in: IC50 on Cytochrome P450 2C9 (Homo sapiens, UniProt P11712), entry Cn1nccc1Nc1ncc(Cl)c(-c2cc3n(c2)C(=O)N([C@H](CO)c2cccc(Cl)c2)C3)n1
> 5 µM

###

# RUN DESCRIPTION: AUC in plasma of BALB/c mouse xenografted with human COLO 205 cells at 50 mg/kg, po for 14 days
# Type: ADME, organism-based
# Design: time 14 day, dose 50 mg/kg
PROPERTY: AUC at 336 h (µg·h/mL)
Give the number; µg·h/mL is assumed, so skip it.

Answer with reported AUC at 336 h of CC(C)Nc1cc(-c2c[nH]c(C(=O)N[C@H](CO)c3cccc(Cl)c3)c2)c(Cl)cn1 [ULIXERTINIB]
114

###

# RUN DESCRIPTION: Oral bioavailability in Beagle dog at 2 mg/kg
# Type: ADME, organism-based, Canis lupus familiaris
# APPLIED CONDITIONS: in vivo
PROPERTY: bioavailability

Report bioavailability for Cc1cnc(Nc2ccnn2C)nc1-c1cc2n(c1)C(=O)N([C@H](CO)c1cccc(Cl)c1)C2
101%

###

# RUN DESCRIPTION: Oral bioavailability in Sprague-Dawley rat at 2 mg/kg
# Assay type: ADME, organism-based
# APPLIED CONDITIONS: in vivo
PROPERTY: bioavailability (%)
Please give a number only; it is taken to be in %.

Quickly give me recorded bioavailability for Cc1cnc(Nc2ccnn2C)nc1-c1cc2n(c1)C(=O)N([C@H](CO)c1cccc(Cl)c1)CC2
29.4

Supply measured bioavailability of Cc1cnc(Nc2ccnn2C)nc1-c1cc2n(c1)C(=O)N([C@H](CO)c1cccc(Cl)c1)C2 in your reply.
45.8

###

# RUN DESCRIPTION: Cmax in ICR mouse plasma at 1 mg/kg, iv and measured after 24 hrs by LC/MS/MS analysis
# Format: ADME, organism-based
# Design: route intravenous, dose 1 mg/kg, time 24 hrs
PROPERTY: Cmax (ng/mL)
Supply the numeric figure in ng/mL, leaving out any unit text.

Please report the measured Cmax for Cc1cnc(Nc2ccnn2C)nc1-c1cc2n(c1)C(=O)N([C@H](CO)c1cccc(Cl)c1)CC2
275

###

# TARGET SYSTEM: Mitogen-activated protein kinase 1 (Homo sapiens, UniProt P28482)
# Sequence (P28482 whole entry): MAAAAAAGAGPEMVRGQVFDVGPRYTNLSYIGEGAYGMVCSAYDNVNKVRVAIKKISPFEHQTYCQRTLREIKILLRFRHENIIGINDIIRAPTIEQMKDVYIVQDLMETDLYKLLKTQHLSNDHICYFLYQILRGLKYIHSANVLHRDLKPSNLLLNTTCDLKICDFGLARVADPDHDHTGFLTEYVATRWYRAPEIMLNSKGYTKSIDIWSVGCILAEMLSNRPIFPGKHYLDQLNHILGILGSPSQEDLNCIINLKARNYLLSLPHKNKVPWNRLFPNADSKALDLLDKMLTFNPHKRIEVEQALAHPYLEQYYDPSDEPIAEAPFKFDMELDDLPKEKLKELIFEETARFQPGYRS
# RUN DESCRIPTION: Inhibition of ERK2 (unknown origin) measured after 2 hr by ADP-glo assay
Lab note: cut-off is 200 nM. Strictly less in IC50 is Yes. Exactly 200 nM or more is No.

// known answers, use as guide
Cc1cnc(Nc2ccnn2C)nc1-c1ccc2c(c1)CCN([C@H](CO)c1cccc(Cl)c1)C2=O | Yes
Cc1cnc(Nc2ccnn2C)nc1-c1ccc2c(c1)CN([C@H](CO)c1cccc(Cl)c1)C2=O | No
Cc1cnc(NC(C)C)nc1-c1cc2n(c1)C(=O)N([C@H](CO)c1cccc(Cl)c1)C2 | Yes
Cc1cnc(Nc2ccnn2C)nc1-c1cc2n(c1)C(=O)N([C@H](CN)c1cccc(Cl)c1)C2 | Yes
Cn1nccc1Nc1nccc(-c2cn3c(n2)CN([C@H](CO)c2cccc(Cl)c2)C3=O)n1 | No

Could you please tell me whether IC50 recorded for CNC[C@H](c1cccc(Cl)c1)N1Cc2cc(-c3nc(Nc4ccnn4C)ncc3C)cn2C1=O is less than 200 nM?
Yes

Please indicate whether the reported IC50 of COc1cc(F)cc([C@@H](CO)N2Cc3cc(-c4nc(Nc5ccnn5C)ncc4C)cn3C2=O)c1 is strictly below 200 nM.
Yes

Check if IC50 falls below 200 nM for Cc1cnc(Nc2ccnn2C)nc1N1Cc2cn(C(CO)c3cccc(Cl)c3)nc2C1 (racemic) .
Yes
